experiment: AUC in BALB/c mice at 100 mg/kg, po; format: ADME, organism-based, Plasma; design: dose 100 mg/kg, route oral; details: BALB/c, mouse, plasma
quantity name: AUC
Answer format reminder: number followed by unit.

Prompt: Please report the recorded AUC for COc1ccc(I)c(Sc2nc3c(N)ncnc3n2CCCNC(C)C)c1 .
Response: 7500 ng·h/mL

----------
Catalogue of Cmax readings, one per entry.
experiment: Cmax in BALB/c mice at 100 mg/kg, po; type: ADME, organism-based; set-up: dose 100 mg/kg, route oral; conditions: mouse, in vivo
The reply should be a number in ng/mL, with the unit left off.

COc1ccc(I)c(Sc2nc3c(N)ncnc3n2CCCNC(C)C)c1	4700

Proceeding to the next compound to report its Cmax.
Prompt: Query (compound): CCC(C)NCCCn1c(Sc2cc(OC)ccc2I)nc2c(N)ncnc21 (configuration not stated) ; field requested: Cmax
Response: 4800

Sourced from ChEMBL document CHEMBL1148609
